# test target: recombinant His-CHK1 (Homo sapiens, UniProt O14757)
# Construct: His-CHK1, In House Lot P976, MW ˜30 KDa, stored at −80° C; fused on or other part: His tag
# Sequence (O14757 1-265 limits assumed): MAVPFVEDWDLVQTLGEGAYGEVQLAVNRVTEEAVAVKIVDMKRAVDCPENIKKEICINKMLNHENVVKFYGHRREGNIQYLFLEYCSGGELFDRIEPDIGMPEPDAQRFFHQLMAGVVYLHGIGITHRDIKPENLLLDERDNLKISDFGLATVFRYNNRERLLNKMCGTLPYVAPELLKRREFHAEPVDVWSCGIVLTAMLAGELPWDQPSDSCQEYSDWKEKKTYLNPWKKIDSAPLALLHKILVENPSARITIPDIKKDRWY
# experiment: CHK1 SPA Assay
# Format: biochemical
# stated conditions: CDC25C biotinylated peptide substrate, 1 uM ATP, read-out: CHK1 IC50
// reported IC50 for each item listed

Worked examples, 3 compounds total:
>>> measured("Cn1cc(-c2cnn3c(N)c(-c4cnn(CCO)c4)c(C4CCCNC4)nc23)cn1 (stereo not shown)")
"0.114 µM"
>>> measured("CC(O)c1c(C2CCCNC2)nc2c(-c3cnn(C)c3)cnn2c1N (single isomer, unassigned) [drawing 213]")
"0.018 µM"
>>> measured("Cc1nc2c(Br)cnn2c(N)c1CCC(N)=O")
"> 50 µM"

Now consider the entry below.
Output measured IC50 for this item: CNC(=O)Cc1c(C)nc2c(Br)cnn2c1N
> 50 µM
